Numbers sourced from PubChem BioAssay.

tested on: Inhibin beta A chain (activin A); assay: INHBA (activin A) binders on microarrays, primary screen, biochemical, small-molecule microarray, 635 nm fluorescence scan (AID 1107); conditions: small-molecule microarray binding, higher = more signal;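 also: mouse activin A protein probed at 4.33 µg/mL on printed slides; score merges bound-protein fluorescence near 667 nm with spot signal-to-noise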
metric: composite z-score
// return a plain number; no unit text

molecule	target.system	composite z-score
CC1CC/C=C\[C@H]2OC34C=CCN(Cn5nnc6ccccc65)C(=O)[C@H]3N(CCO)C(=O)[C@@H]4C2C(=O)O1 (some centres not stated)	Inhibin beta A chain (activin A)	1.19

Qu. Entry COCCOC(=O)N1C(=O)[C@@]2(c3ccccc31)[C@H](C(N)=O)[C@H]1C(=O)O[C@H](c3ccccc3)[C@H](c3ccccc3)N1[C@@H]2c1ccccc1OCCO : reported composite z-score = ?
Ans. 0.617

Qu. Entry COC(=O)CC=C[C@@H](C)[C@H](OC)c1ccccc1Br : reported composite z-score = ?
Ans. 0.887

Qu. Entry C#CCCCON=C1C[C@@H](O)[C@@H](O)[C@@H]2[C@@H]3C(=O)N(Cc4ccccc4)C(=O)[C@@H]3CC[C@H]12 : reported composite z-score = ?
Ans. 0.269

Qu. Entry COC(=O)[C@H](C)NC(=O)CCC1CC(OC(=O)NCc2cccc3ccccc23)CC2(CCCC(COC(=O)NCC3CCCCC3)O2)O1 (some centres not stated) : reported composite z-score = ?
Ans. -0.564

Qu. Entry CO[C@@H]1COC(=O)CC=C[C@@H](C)[C@@H]2C=C[C@H](O)[C@@H](COC(=O)[C@H](C)NC(=O)CC=C[C@H]1C)O2 : reported composite z-score = ?
Ans. 0.578

Qu. Entry C=C(CCCC)C(=O)CC[C@@H](OC(C)=O)c1cccc(OCCO)c1 : reported composite z-score = ?
Ans. 0.474

----------
assay: inhibitors of hydroxyurea-induced Chk1 phosphorylation, primary screen, imaging, HeLa, phospho-Chk1 nuclear intensity (AID 1187); conditions: hydroxyurea-induced phospho-Chk1 immunofluorescence imaging, higher = more signal; also: test concentration not given here
metric: z-score
// return a plain number; no unit text

Would you please look over these solved cases?
compound	observed.value
C=CCN1C(=O)[C@]2(O[C@H](CCn3cc(CCO)nn3)[C@@H]([Si](C)(C)c3ccc(OC)cc3)[C@@H]2C)c2cc(N3CCOC3=O)ccc21	-0.5
CC(C)(C)N1CC=CC23O[C@@H]4C=CCCOC(=O)C4[C@H]2C(=O)N(CCCCCO)[C@@H]3C1=O (some centres not stated)	-1.13
CN(C)c1ccc(C(O)C2C=CC3C(=O)N(c4ccccc4)C(=O)C3N2Nc2ccccc2F)cc1 (configuration not stated)	-0.817
O=C1C2C=CC(C(O)c3ccc([N+](=O)[O-])cc3)N(Nc3ccc([N+](=O)[O-])cc3)C2C(=O)N1c1ccccc1 (configuration not stated)	-0.512
COC(=O)[C@H]1COC(c2ccc(OCCCO)cc2)=N1	-0.388
CN(C)C(=O)[C@@]1(Cc2ccccc2)N=C(c2ccc(OCCCO)cc2)O[C@H]1c1ccccc1CN=[N+]=[N-]	0.492

Could you now consider this next compound?
Qu. Entry C#C[C@@H](CC)O[Si](C#Cc1ccc(Oc2ccccc2)cc1)(C(C)C)C(C)C : reported z-score = ?
Ans. -0.0725

----------
assay: modulators of HCV replicon luciferase signal, primary screen, HCV replication inhibitor project, Huh7 cells, luciferase reporter (AID 1109); settings: 48 h, higher = more signal;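 also: huh7 hepatoma cells harbouring a luciferase neomycin HCV replicon reporter; luciferase luminescence as measure of HCV replicon replication; test concentration not given here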
Tick class 1 if z-score is -1 or greater. Tick class 0 if z-score is less than -1.

Take a look at these entries with their results.
compound	category.label
CCc1cc2c(nc1CC)CCN(CCC(C)=NOC[C@@H](O)COCc1ccco1)C2	class 0
COc1ccccc1CN1C(=O)c2ccccc2[C@@]2(Cc3ccccc3N(C(C)C)C2=O)[C@@H]1c1ccc(CO)cc1	class 1
C=CCN1C(=O)[C@]2(O[C@H](CCn3cc(CCO)nn3)[C@@H]([Si](C)(C)c3ccc(OC)cc3)[C@@H]2C)c2cc(N3CCOC3=O)ccc21	class 0

Qu. Tell me whether z-score is at least -1 here: COCCOC(=O)N1C(=O)[C@@]2(c3ccccc31)[C@H](C(N)=O)[C@H]1C(=O)O[C@H](c3ccccc3)[C@H](c3ccccc3)N1[C@@H]2c1ccccc1OCCO
Ans. class 0

----------
biological target: Concanavalin-A (Canavalia ensiformis); experiment: ConA small-molecule binders, primary screen, artefact control for SMM control protein annotation, biochemical, small-molecule microarray, Alexa647 label, 635 nm (AID 1127); settings: ConA-A647 binding fluorescence, higher = more signal;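 also: z combines 667 nm emission intensity with signal-to-noise across three replicate slides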
Reported composite z-score by item:

Would you please look over these solved cases?
CCOC(=O)CCN1C(=O)[C@H]2[C@H]3[C@H](O)[C@H](O)CC(=NNC(=O)OCc4ccc(OC)cc4)[C@@H]3CC[C@H]2C1=O 1.09
CCOC(=O)NN=C1C[C@@H](O)[C@@H](O)[C@@H]2[C@@H]3C(=O)N(C4CCCCC4)C(=O)[C@@H]3CC[C@H]12 0.357

Qu. Entry Cc1cc2c(c(=O)o1)[C@H](O)[C@H]1O[C@H]1C2=O : reported composite z-score = ?
Ans. -0.0383

----------
Reported composite z-score by item:
biological target: Torsin-1A (Homo sapiens) (UniProt O14656); experiment: torsin A binders from cell lysate, primary screen, small-molecule microarray, wild-type, 635/667 nm (AID 1149); settings: COS7 hTOR1A-WT lysate, 635 nm fluorescence, higher = more signal
Sequence (O14656 whole entry, looked up): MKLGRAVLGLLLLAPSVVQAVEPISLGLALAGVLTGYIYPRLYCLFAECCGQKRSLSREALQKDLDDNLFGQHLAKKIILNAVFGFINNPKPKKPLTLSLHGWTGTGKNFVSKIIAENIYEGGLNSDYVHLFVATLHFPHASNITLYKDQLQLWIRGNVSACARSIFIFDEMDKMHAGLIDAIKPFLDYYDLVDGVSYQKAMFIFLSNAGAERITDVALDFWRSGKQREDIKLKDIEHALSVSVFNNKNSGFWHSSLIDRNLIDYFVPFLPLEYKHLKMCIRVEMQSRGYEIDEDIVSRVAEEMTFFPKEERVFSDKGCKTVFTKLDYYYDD
// return a plain number; no unit text

Would you please look over these solved cases?
compound	observed.value
O=C1c2ccccc2[C@@]2(Cc3ccccc3N(C3CC3)C2=O)[C@H](c2ccc(CO)cc2)N1Cc1ccccc1C(F)(F)F	-1.02
CC(=O)OC[C@H]1O[C@H](CCON=C(C)CCN2CCc3nc(-c4ccccc4)c(-c4ccccc4)cc3C2)C=C[C@@H]1OC(C)=O	0.0622
CCOc1ccc(N2C(=O)/C(=C/C=C/c3ccccc3OC)S(=O)(=O)C2c2cccc([N+](=O)[O-])c2)cc1 (stereo unspecified)	1.94
Cc1ccc(S(=O)(=O)N[C@@H]2COC(=O)[C@H](C)COC(=O)CC=C[C@H]2C)cc1	1.06
CCOC(=O)[C@H](Cc1ccccc1)NC(=O)CCC1CC(OC(=O)NCc2ccc3c(c2)OCO3)CC2(CCCC(COC(=O)NCc3cccc(C(F)(F)F)c3)O2)O1 (stereo partly specified)	0.0337

Could you now consider this next compound?
Qu. Entry CC(CCN1CCc2nc(-c3ccccc3)c(-c3ccccc3)cc2C1)=NO[C@H](C)c1cn([C@@H]2COC[C@H]2O)nn1 : reported composite z-score = ?
Ans. 1.01

----------
Reported composite z-score by item:
test: small-molecule microarray binders of probe aNog, primary screen, biochemical, biotinylated probe, 635/667 nm fluorescence (AID 1115); details: higher = more signal;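 also: probe is biotinylated aNog protein used at 0.15 µg/mL for 1 h at 4 C; z-score combines 667 nm fluorescence of each spot with its signal to noise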
// return a plain number; no unit text

Would you please look over these solved cases?
compound	observed.value
CCOC(=O)C[C@H]1[C@H](OC(=O)c2cc3ccccc3oc2=O)[C@@H](NC(=O)c2ccc3ccccc3n2)c2cc(OCCCO)ccc2N1C(=O)c1ccccc1	0.108
CC(C)=CCCC(C)=CCON=C1[C@H]2CCn3c(=O)n(C)c(=O)n3[C@H]2[C@H](O)[C@@H]2O[C@H]12	-0.0146
COCCOC(=O)N1C(=O)[C@@]2(c3cc(C#Cc4ccc(OC)cc4)ccc31)[C@H](c1ccc(O)cc1)N1[C@H](c3ccccc3)[C@H](c3ccccc3)OC(=O)[C@H]1[C@@H]2C(N)=O	-0.694
CC(C)=NOCc1cccc(-c2cc(-c3ccccc3)no2)c1	-0.161
CN1C(=O)C2C=CC(C(O)c3ccc(I)cc3)N(NC(=O)OC(C)(C)C)C2C1=O (stereo unspecified)	1.26

Qu. Entry COCCCNC(=O)[C@]1(CCC(=O)OC(C)(C)C)N=C(c2ccc(OCCCO)cc2)O[C@@H]1c1ccccc1N=[N+]=[N-] : reported composite z-score = ?
Ans. 1.56

Qu. Entry CCCCCCc1nc(CCCc2cc3c(c(CCCCCC)n2)[Si](C(C)C)(C(C)C)O[C@H]3c2ccccc2)cc2c1[Si](C(C)C)(C(C)C)O[C@H]2c1ccccc1 : reported composite z-score = ?
Ans. -0.213

Qu. Entry CCOC(=O)[C@H](Cc1ccccc1)NC(=O)CCC1CC(OC(=O)NCc2ccc3c(c2)OCO3)CC2(CCCC(COC(=O)NCC(c3ccccc3)c3ccccc3)O2)O1 (stereo partly specified) : reported composite z-score = ?
Ans. -0.233

Qu. Entry COC(=O)C1=C(C)[C@@H](O)[C@@H](C)[C@H](c2c(OC)c(OC)c(C)c(OC)c2OC)O1 : reported composite z-score = ?
Ans. -0.135

Qu. Entry CC(C)CN1CCc2nc(-c3ccccc3)c3c(c2CC1)CO[C@@H](C)C3 : reported composite z-score = ?
Ans. -0.138

Qu. Entry CC(=O)C[C@H](O)[C@@H](NC(=O)OC(C)(C)C)C(C)C : reported composite z-score = ?
Ans. -0.0926
